Tested on: P. aeruginosa ATCC 35151
Assay: microbe, parasite or virus in culture
Assay type: cell-based
Conditions: Pseudomonas aeruginosa, ATCC35151, read-out: Minimum inhibitory concentration, P. aeruginosa ATCC 35151
ENDPOINT: MIC

O=C(O)c1c(F)ccc2c1OB(O)[C@@H](NC(=O)[C@H](NC(=O)N1CCN(C3CCN(C(=O)c4cc(O)c(F)c(O)c4F)CC3)C1=O)c1cc(F)c(O)c(O)c1Cl)C2 (single isomer, unassigned) : < 1 µg/mL
O=C(NCCN1CCN(C(=O)NC(C(=O)N[C@H]2Cc3ccc(F)c(C(=O)O)c3OB2O)c2cc(F)c(O)c(O)c2Cl)C1=O)c1cccnc1 (stereo partly drawn) : < 1 µg/mL
O=C(NCCCN1CCN(C(=O)NC(C(=O)N[C@H]2Cc3ccc(F)c(C(=O)O)c3OB2O)c2cc(F)c(O)c(O)c2Cl)C(=O)C1=O)c1c(F)cncc1Cl (stereo partly drawn) : < 1 µg/mL

This collection of values is drawn from patent US20240270762A1.
